- system-under-test: Tyrosine-protein kinase receptor UFO (Homo sapiens);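 further: values are mean percent inhibition of AXL from the GSK PKIS screen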
- test-settings: at 0.1 µM
In this section we review reported inhibition values for a set of compounds.
Field: numeric (%). Do not append units.

Some solved entries appear below for comparison.
# compound, system-under-test, recorded-result
rows = [
    ("CC(=O)Nc1cccc(C#Cc2cncnc2Nc2ccc(OCc3cccc(F)c3)c(Cl)c2)c1", "Tyrosine-protein kinase receptor UFO (Homo sapiens)", 1.64),
    ("CCn1c(-c2nonc2N)nc2c(C#CC(C)(C)O)nc(OC[C@H](N)c3ccccc3)cc21", "Tyrosine-protein kinase receptor UFO (Homo sapiens)", -1.29),
    ("COc1cc2ncn(-c3cc(OCc4ccccc4C(F)(F)F)c(C(=O)N(C)C)s3)c2cc1OC", "Tyrosine-protein kinase receptor UFO (Homo sapiens)", -0.33),
    ("COc1cc(N2CCN(C(C)C)CC2)ccc1Nc1nc(Nc2ccc(F)cc2C(N)=O)c2cc[nH]c2n1", "Tyrosine-protein kinase receptor UFO (Homo sapiens)", 3.89),
    ("CCn1c(-c2nonc2N)nc2c(C#CC(C)(C)O)ncc(OC3CCNCC3)c21", "Tyrosine-protein kinase receptor UFO (Homo sapiens)", -1.51),
    ("O=C(Nc1n[nH]c2cc(-c3ccc(F)cc3)ccc12)C1CC1", "Tyrosine-protein kinase receptor UFO (Homo sapiens)", -5.44),
]

Task: Please indicate inhibition recorded for Nc1nc(-c2ccc(F)cc2)c(-c2ccc3ncccc3n2)s1
Result: -5.15

Task: Please indicate inhibition recorded for CCN(CC)S(=O)(=O)c1ccc(OC)c(Nc2ncc(-c3ccccc3)o2)c1
Result: 0.5

Task: Please indicate inhibition recorded for c1cc(-c2cnn3nc(N4CCOCC4)ccc23)nc(NC2CC2)n1
Result: -3.58

* * *

In this section we review reported inhibition values for a set of compounds.
- system-under-test: Mitogen-activated protein kinase 9 (Homo sapiens);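 further: values are mean inhibition of JNK2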
- test-settings: at 0.1 µM

Some solved entries appear below for comparison.
# smiles-repr, value-type, recorded-result
measured = [
    ("CCn1c(-c2nonc2N)nc2c(C#CC(C)(C)O)ncc(OC3CCNCC3)c21", "inhibition", "4.13%"),
    ("CCn1c(-c2nonc2N)nc2cnc(Oc3cccc(NC(=O)c4ccc(N(C)C)cc4)c3)cc21", "inhibition", "2.94%"),
    ("CC(=O)NCc1cccc(C#Cc2cncnc2Nc2ccc(OCc3cccc(F)c3)c(Cl)c2)c1", "inhibition", "0.88%"),
    ("CC(C)(CO)CNC(=O)c1ccc2c(c1)/C(=N/Nc1ccc(S(N)(=O)=O)cc1)C(=O)N2", "inhibition", "-0.59%"),
    ("COc1cc(Nc2nccc(Nc3ccc4c(C)n[nH]c4c3)n2)cc(OC)c1OC", "inhibition", "2.22%"),
    ("CN1CCC(n2cnc(-c3ccc(F)cc3)c2-c2ccnc(N)n2)CC1", "inhibition", "2.6%"),
    ("Fc1ccc(-c2nn3ccccc3c2-c2ccncc2)cc1", "inhibition", "4.3%"),
    ("CNC(=O)c1cc(-c2ccc(F)cc2)cc(-c2ccc(S(=O)(=O)N3CCCC3)cc2)c1N", "inhibition", "1.82%"),
    ("COc1cc(/C=N/Nc2ncnc3[nH]ncc23)ccc1O", "inhibition", "1.89%"),
]

Now for another entry.
Task: Please indicate inhibition recorded for Cc1cccc2c1NC(=O)/C2=N\Nc1ccc(S(N)(=O)=O)cc1
Result: 1.94%
